Assay: Kinetic turbidimetric solubility assay
Type: physicochemical
Details: PBS, aqueous buffer, kinetic from dmso stock
Description: The desired compounds were sequentially diluted in DMSO in a 96-well plate. 1.5 μL of each well were transferred into another 96-well plate and mixed with 148.5 μL of PBS. Plates were shaken for 5 min at 600 rpm at room temperature, and the absorbance at 620 nm was measured. Absorbance values were normalized by blank subtraction and plotted using GraphPad Prism 8.4.2 (GraphPad Software, San Diego, CA, USA). […]
Experimental Endpoint: solubility at 5 min

Below: 6 molecules and their reported solubility at 5 min.
{"Molecule": "CC(C)CC(C(=O)NO)C(=O)Nc1ccc(Cn2cc(CNS(=O)(=O)CC(C)C)nn2)cc1 (stereo not shown)", "solubility at 5 min": "> 200 µM"}
{"Molecule": "CC(C)CC(C(=O)NO)C(=O)Nc1ccc(Cn2cc(CSc3ccc(Cl)cc3)nn2)cc1 (stereo not shown)", "solubility at 5 min": "< 200 µM"}
{"Molecule": "CC(C)CC(C(=O)NO)C(=O)Nc1ccc(Cn2cc(CNS(=O)(=O)c3ccc(Cl)cc3)nn2)cc1 (stereo not shown)", "solubility at 5 min": "> 200 µM"}
{"Molecule": "CC(C)CC(C(=O)NO)C(=O)Nc1ccc(Cn2cc(CN(C)S(=O)(=O)c3ccc(I)cc3)nn2)cc1 (stereo not shown)", "solubility at 5 min": "< 200 µM"}
{"Molecule": "CC(C)CC(C(=O)NO)C(=O)Nc1ccc(Cn2cc(CNS(=O)(=O)c3ccc(I)cc3)nn2)cc1 (stereo not shown)", "solubility at 5 min": "106 µM"}
{"Molecule": "CC(C)CC(C(=O)NO)C(=O)Nc1ccc(Cn2cc(CNS(=O)(=O)c3ccc(F)cc3)nn2)cc1 (stereo not shown)", "solubility at 5 min": "> 200 µM"}

Would you kindly look at the next entry?
Given CC(C)CC(C(=O)NO)C(=O)Nc1ccc(Cn2cc(CNS(=O)(=O)c3ccc(Cl)c(Cl)c3)nn2)cc1 (stereo not shown) , respond with its solubility at 5 min.
117 µM

---

pIC50 values recorded for ADAM-17 (TACE) (Homo sapiens (Human), UniProt P78536)
pIC50: −log10 of the molar value.

{"Molecule": "CC(C)CC(C(=O)NO)C(=O)Nc1ccc(Cn2cc(CNS(=O)(=O)c3ccc(I)cc3)nn2)cc1 (stereo not shown)", "pIC50": "< 4.00"}

Please look at CC(C)CC(C(=O)NO)C(=O)Nc1ccc(Cn2cc(CNS(=O)(=O)CC(C)C)nn2)cc1 (stereo not shown) and tell me its recorded pIC50 on ADAM-17 (TACE) (Homo sapiens (Human), UniProt P78536).
Sequence (P78536 whole entry, looked up): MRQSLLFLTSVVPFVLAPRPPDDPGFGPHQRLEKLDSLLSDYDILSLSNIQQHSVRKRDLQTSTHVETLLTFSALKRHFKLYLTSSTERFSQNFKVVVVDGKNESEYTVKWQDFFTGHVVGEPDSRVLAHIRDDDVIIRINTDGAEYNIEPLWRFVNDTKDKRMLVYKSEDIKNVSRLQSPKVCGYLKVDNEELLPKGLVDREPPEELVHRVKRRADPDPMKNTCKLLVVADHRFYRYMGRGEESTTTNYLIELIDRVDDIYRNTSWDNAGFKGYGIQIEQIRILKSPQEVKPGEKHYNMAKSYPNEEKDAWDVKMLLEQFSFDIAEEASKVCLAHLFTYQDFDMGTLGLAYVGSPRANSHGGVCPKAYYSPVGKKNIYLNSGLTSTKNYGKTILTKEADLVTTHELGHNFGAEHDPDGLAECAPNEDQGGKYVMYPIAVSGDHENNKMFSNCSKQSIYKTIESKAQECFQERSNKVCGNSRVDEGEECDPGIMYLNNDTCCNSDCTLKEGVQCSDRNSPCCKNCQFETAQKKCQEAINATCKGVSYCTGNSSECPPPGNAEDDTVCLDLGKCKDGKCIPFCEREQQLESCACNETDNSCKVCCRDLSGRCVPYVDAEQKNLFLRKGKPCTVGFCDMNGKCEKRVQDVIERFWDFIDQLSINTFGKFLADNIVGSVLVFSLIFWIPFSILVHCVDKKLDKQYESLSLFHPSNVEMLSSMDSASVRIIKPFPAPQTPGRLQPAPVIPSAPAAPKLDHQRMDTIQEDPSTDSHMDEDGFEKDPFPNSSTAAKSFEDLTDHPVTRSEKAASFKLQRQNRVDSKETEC
< 4.00

Give ADAM-17 (TACE) (Homo sapiens (Human), UniProt P78536) pIC50 for the following molecule: CC(C)CC(C(=O)NO)C(=O)Nc1ccc(CN=[N+]=[N-])cc1 (stereo not shown)
5.80

State pIC50 (ADAM-17 (TACE) (Homo sapiens (Human), UniProt P78536)) of CC(C)CC(C(=O)NO)C(=O)Nc1ccc(Cn2cc(CNS(=O)(=O)c3ccc(F)cc3)nn2)cc1 (stereo not shown) .
< 4.00

---

experiment: in vitro; type: in vitro ADME; conditions: mouse, s9
Lab note: anything with half-life at 1 μM at or over 30 min counts as 1 (yes); the rest go in 0 (no).

{"Compound": "CC(C)CC(C(=O)NO)C(=O)Nc1ccc(Cn2cc(CN(C)S(=O)(=O)c3ccc(I)cc3)nn2)cc1 (stereo not shown)", "Category Label": "1 (yes)"}
{"Compound": "CC(C)CC(C(=O)NO)C(=O)Nc1ccc(Cn2cc(CNS(=O)(=O)c3ccc(Cl)c(Cl)c3)nn2)cc1 (stereo not shown)", "Category Label": "0 (no)"}
{"Compound": "CC(C)CC(C(=O)NO)C(=O)Nc1ccc(Cn2cc(CNS(=O)(=O)CC(C)C)nn2)cc1 (stereo not shown)", "Category Label": "1 (yes)"}
{"Compound": "CC(C)CC(C(=O)NO)C(=O)Nc1ccc(Cn2cc(CNS(=O)(=O)c3ccc(Cl)cc3)nn2)cc1 (stereo not shown)", "Category Label": "1 (yes)"}

# check: half-life at 1 μM of CC(C)CC(C(=O)NO)C(=O)Nc1ccc(Cn2cc(CNS(=O)(=O)c3ccc(F)cc3)nn2)cc1 (stereo not shown) is greater than or equal to 30 min
1 (yes)

Dear colleague, could you confirm whether CC(C)CC(C(=O)NO)C(=O)Nc1ccc(Cn2cc(CSc3ccc(Cl)cc3)nn2)cc1 (stereo not shown) has half-life at 1 μM at or above 30 min?
0 (no)

---

target: LasB (Pseudomonas aeruginosa (strain ATCC 15692 / DSM 22644 / CIP 104116 / JCM 14847 / LMG 12228 / 1C / PRS 101 / PAO1)); assay: In vitro LasB activity assay (fluorogenic substrate); settings: LasB 0.3 nM, substrate 150 μM, mean ± SD
Let's look at some compounds and their measured log10(IC50).
Recorded IC50 (log10, nM)

Some solved entries appear below for comparison.
{"Compound": "CC(C)CC(C(=O)NO)C(=O)Nc1ccc(Cn2cc(CNC(=O)c3ccc(I)cc3)nn2)cc1 (stereo not drawn)", "log10(IC50)": 1.36}
{"Compound": "CC(C)CC(C(=O)NO)C(=O)Nc1ccc(Cn2nncc2CNC(=O)OC(C)(C)C)cc1 (stereo not drawn)", "log10(IC50)": 0.81}
{"Compound": "CC(C)CC(C(=O)NO)C(=O)Nc1ccc(Cn2cc(CSc3ccc(Cl)cc3)nn2)cc1 (stereo not drawn)", "log10(IC50)": 0.15}
{"Compound": "CC(C)CC(C(=O)NO)C(=O)Nc1ccc(Cn2cc(CNS(=O)(=O)c3ccccc3Cl)nn2)cc1 (stereo not drawn)", "log10(IC50)": 0.63}

Supply reported log10(IC50) belonging to this compound: CC(=O)c1ccc(S(=O)(=O)NCc2cn(Cc3ccc(NC(=O)C(CC(C)C)C(=O)NO)cc3)nn2)cc1 (stereo not drawn)
0.90

Report log10(IC50) for CC(C)CC(C(=O)NO)C(=O)Nc1ccc(Cn2cc(CN)nn2)cc1 (stereo not drawn)
1.75

Output log10(IC50) of COc1ccc(S(=O)(=O)NCc2cn(Cc3ccc(NC(=O)C(CC(C)C)C(=O)NO)cc3)nn2)cc1 (stereo not drawn)
0.28

---

molecular target: LasB (Pseudomonas aeruginosa (strain ATCC 15692 / DSM 22644 / CIP 104116 / JCM 14847 / LMG 12228 / 1C / PRS 101 / PAO1), UniProt P14756); experiment: In vitro LasB activity assay (fluorogenic substrate); conditions: LasB 0.3 nM, substrate 150 μM, mean ± SD
Sequence (P14756 198-498): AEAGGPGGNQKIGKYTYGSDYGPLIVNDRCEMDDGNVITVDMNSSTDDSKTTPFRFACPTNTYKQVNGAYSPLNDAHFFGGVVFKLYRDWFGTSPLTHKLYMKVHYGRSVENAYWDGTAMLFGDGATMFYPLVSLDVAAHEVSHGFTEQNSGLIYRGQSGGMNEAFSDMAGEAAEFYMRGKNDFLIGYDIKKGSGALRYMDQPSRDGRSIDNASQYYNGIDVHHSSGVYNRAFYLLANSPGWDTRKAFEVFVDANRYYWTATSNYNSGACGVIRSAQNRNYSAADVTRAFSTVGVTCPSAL
Experimental Endpoint: IC50 (nM)
Return type: number; implicit unit nM.

Some compounds with known IC50 results, for comparison:
{"Compound": "CC(C)C(C(=O)NO)C(=O)Nc1ccc(Cn2cc(CNS(=O)(=O)c3ccc(I)cc3)nn2)cc1 (stereo not drawn)", "IC50, nM": 1.9}
{"Compound": "CC(C)CC(C(=O)NO)C(=O)Nc1ccc(Cn2cc(C3CSCN3C(=O)c3ccc(F)cc3)nn2)cc1 (stereo not drawn)", "IC50, nM": 6.6}
{"Compound": "CC(C)CCC(C(=O)NO)C(=O)Nc1ccc(Cn2cc(CNS(=O)(=O)c3ccc(I)cc3)nn2)cc1 (stereo not drawn)", "IC50, nM": 48.5}

Give the value of IC50 reported for the following: CC(C)CC(C(=O)NO)C(=O)Nc1ccc(Cn2cc(-c3ccc(I)cc3)nn2)cc1 (stereo not drawn)
37.8

Give the value of IC50 reported for the following: CC(=O)Nc1ccccc1OCc1cn(Cc2ccc(NC(=O)C(CC(C)C)C(=O)NO)cc2)nn1 (stereo not drawn)
13.8

Read the entry CC(C)CC(C(=O)NO)C(=O)Nc1ccc(Cn2cc(CNS(=O)(=O)c3ccc(Cl)c(Cl)c3)nn2)cc1 (stereo not drawn) and write its reported IC50.
1.6

Kindly indicate its recorded IC50. Item: CC(C)CC(C(=O)NO)C(=O)Nc1ccc(Cn2cc(CNS(=O)(=O)c3ccc(C(C)C)cc3)nn2)cc1 (stereo not drawn)
3.1

Hello, please tell me recorded IC50 for this one: CC(C)CC(C(=O)NO)C(=O)Nc1ccc(Cn2cc(CNC(=O)OC(C)(C)C)nn2)cc1 (stereo not drawn)
9.8

Check the records and state IC50 for CC(C)CC(C(=O)NO)C(=O)Nc1ccc(CN=[N+]=[N-])cc1 (stereo not drawn)
16.9

Report IC50 for CC(C)CC(C(=O)NO)C(=O)Nc1ccc(Cn2cc(CNS(=O)(=O)c3ccc(F)cc3)nn2)cc1 (stereo not drawn)
3.8

Quote IC50 reported for CC(C)CC(C(=O)NO)C(=O)Nc1ccc(Cn2cc(CNc3ccc(I)cc3)nn2)cc1 (stereo not drawn) please.
8.4

# return recorded IC50 for entry O=C(NO)C(CC1CC1)C(=O)Nc1ccc(Cn2cc(CNS(=O)(=O)c3ccc(I)cc3)nn2)cc1 (stereo not drawn)
9.9

# return recorded IC50 for input O=C(NO)C(Cc1ccccc1)C(=O)Nc1ccc(Cn2cc(CNS(=O)(=O)c3ccc(I)cc3)nn2)cc1 (stereo not drawn)
1

Identify the reported IC50 for the following entry. CC(C)CC(C(=O)NO)C(=O)Nc1ccc(Cn2nncc2CNS(=O)(=O)CC(C)C)cc1 (stereo not drawn)
6.8

Query IC50 for CC(C)CC(C(=O)NO)C(=O)Nc1ccc(Cn2nncc2CNS(=O)(=O)c2ccc(I)cc2)cc1 (stereo not drawn)
7.8
